- tgt: Proliferating Cell Nuclear Antigen (PCNA) (UniProt P12004 1-261)
- Sequence (P12004 whole entry): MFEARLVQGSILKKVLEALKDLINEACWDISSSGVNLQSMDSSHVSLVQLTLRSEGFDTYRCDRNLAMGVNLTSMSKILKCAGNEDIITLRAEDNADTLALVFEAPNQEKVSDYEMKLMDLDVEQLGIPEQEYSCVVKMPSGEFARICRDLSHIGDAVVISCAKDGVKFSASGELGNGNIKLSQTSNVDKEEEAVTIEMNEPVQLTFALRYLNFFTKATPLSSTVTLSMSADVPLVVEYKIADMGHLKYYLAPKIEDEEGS
- experiment: FP
No end group written: not given here.
observed property: Kd (nM)
Report only the number, with the unit nM understood.

**Q:** Please report the recorded Kd for SAVLQKKITDYFHPKK (also: fluorescein-labeled, position not given here) [Pogo-Ligase peptide] .
**A:** 51
